Data provenance: patent US20210070748A1

Some compounds, each annotated with its measured IC50.
target: LCK (Homo sapiens, UniProt P06239); assay: Inhibition of a panel of kinases, in vitro HotSpot kinase assay: LCK; type: biochemical; conditions: D-compounds panel data; 1 μM ATP; read-out: IC50 LCK
Sequence (P06239 whole entry): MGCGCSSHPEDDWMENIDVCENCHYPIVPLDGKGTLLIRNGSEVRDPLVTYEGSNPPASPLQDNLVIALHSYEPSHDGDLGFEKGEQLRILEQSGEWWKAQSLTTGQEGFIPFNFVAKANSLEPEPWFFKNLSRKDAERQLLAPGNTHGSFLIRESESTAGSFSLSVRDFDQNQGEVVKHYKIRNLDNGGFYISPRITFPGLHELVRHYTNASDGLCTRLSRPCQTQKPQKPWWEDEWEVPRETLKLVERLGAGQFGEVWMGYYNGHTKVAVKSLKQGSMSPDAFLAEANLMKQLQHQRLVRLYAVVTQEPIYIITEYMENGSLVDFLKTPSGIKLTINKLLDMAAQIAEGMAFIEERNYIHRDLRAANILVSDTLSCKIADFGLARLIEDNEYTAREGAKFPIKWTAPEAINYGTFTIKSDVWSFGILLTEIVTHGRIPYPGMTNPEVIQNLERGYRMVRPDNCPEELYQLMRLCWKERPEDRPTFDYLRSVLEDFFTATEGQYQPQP
quantity.name: IC50

Cn1cc(Nc2nc(N3CCCC4(C3)CN(c3ccc(C5CC5)cc3)C(=O)O4)cnc2C(N)=O)cn1 [Example D-147] : 100 to 1000 nM
COCCN(C)c1ccc(C(=O)N[C@@H]2CCCN(c3cnc(C(N)=O)c(Nc4cnn(C)c4)n3)[C@@H]2C)cc1 [Example D-248] : 10 to 100 nM
C[C@@H]1[C@H](NC(=O)c2ccc(C3CC3)cc2)CCCN1c1cnc(C(N)=O)c(Nc2ccc(N3CCN(C)CC3)c(C(F)(F)F)c2)n1 [Example D-92] : 100 to 1000 nM
Cn1cc(Nc2nc(N3CCC[C@@H]4[C@H]3CCN4C(=O)c3ccccc3)cnc2C(N)=O)cn1 (racemic) [Example D-54] : 100 to 1000 nM
C[C@@H]1[C@H](NC(=O)c2ccc(C(C)(C)C)cc2)CCCN1c1cnc(C(N)=O)c(Nc2cnn(C)c2)n1 [Example D-22] : 1000 to 10000 nM
Cc1cc(Nc2nc(N3CCC[C@@H](NC(=O)N4Cc5ccccc5C4=O)C3)cnc2C(N)=O)sn1 [Example D-15] : 10 to 100 nM
C[C@@H]1[C@H](NC(=O)c2ccc(C3CC3)nc2)CCCN1c1cnc(C(N)=O)c(Nc2ccc(OC3CCOCC3)cc2)n1 [Example D-309] : 100 to 1000 nM
C[C@@H]1[C@H](NC(=O)c2ccc(C3CC3)cc2F)CCCN1c1cnc(C(N)=O)c(Nc2ccc(CN3CCN(C)CC3)cn2)n1 [Example D-132] : 1000 to 10000 nM
C[C@@H]1[C@H](NC(=O)c2ccc(C(C)(O)CO)cc2)CCCN1c1cnc(C(N)=O)c(Nc2cnn(C)c2)n1 (single isomer, unassigned) [Example D-256] : 10 to 100 nM

====

pIC50 listing for selected compounds.
target: BTK-WT (Homo sapiens); construct: purified from insect cells as a full-length construct containing an N-terminal 6X-His tag; His6 (N); made in house; host or cells: insect cells (baculovirus Sf21 in Method B); experiment: Btk in vitro inhibitory activity (one of Method A TR-FRET, Method B electrophoretic mobility shift, Method C radiometric filter binding); type: biochemical; details: D-compounds panel data; read-out: IC50 BTK-WT
Sequence (Q06187 whole entry): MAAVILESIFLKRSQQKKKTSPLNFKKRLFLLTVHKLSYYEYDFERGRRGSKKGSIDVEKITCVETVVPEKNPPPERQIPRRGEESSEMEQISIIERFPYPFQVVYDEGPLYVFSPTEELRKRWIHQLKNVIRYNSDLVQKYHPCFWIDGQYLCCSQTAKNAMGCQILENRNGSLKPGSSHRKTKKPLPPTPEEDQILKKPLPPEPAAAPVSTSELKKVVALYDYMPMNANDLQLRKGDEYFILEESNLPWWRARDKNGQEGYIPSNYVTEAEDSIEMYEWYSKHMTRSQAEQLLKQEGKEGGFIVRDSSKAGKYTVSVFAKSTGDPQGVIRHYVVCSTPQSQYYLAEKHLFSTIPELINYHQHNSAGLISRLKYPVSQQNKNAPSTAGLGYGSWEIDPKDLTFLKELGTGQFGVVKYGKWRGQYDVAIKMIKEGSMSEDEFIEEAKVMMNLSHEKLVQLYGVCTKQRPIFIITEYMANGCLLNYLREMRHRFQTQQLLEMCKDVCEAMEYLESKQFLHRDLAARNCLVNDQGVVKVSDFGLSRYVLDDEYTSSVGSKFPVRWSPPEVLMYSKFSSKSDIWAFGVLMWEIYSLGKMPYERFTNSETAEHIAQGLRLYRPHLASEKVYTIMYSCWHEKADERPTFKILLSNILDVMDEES
pIC50: −log10 of the molar value.
quantity.name: pIC50

COc1cc(C(=O)N[C@@H]2CCCN(c3cnc(C(N)=O)c(Nc4cnn(C)c4)n3)[C@@H]2C)ccc1C1CC1 [Example D-231] : ≥ 8.00
C[C@@H]1[C@H](NC(=O)c2ccc(OC3CC3)cc2)CCCN1c1cnc(C(N)=O)c(Nc2cnn(C)c2)n1 [Example D-219] : ≥ 8.00
CN(C)C(=O)N[C@H]1CCCN(c2cnc(C(N)=O)c(Nc3ccc4ncccc4c3)n2)[C@@H]1CO (racemic) [Example D-64] : 5.00 to 6.00
C[C@@H]1[C@H](NC(=O)c2ccc(C3CC3)cc2)CCCN1c1cnc(C(N)=O)c(Nc2ccc(N3CCCCC3)cc2)n1 [Example D-37] : 7.00 to 8.00
C[C@@H]1[C@H](NC(=O)c2ccc(C3CC3)c(Cl)c2)CCCN1c1cnc(C(N)=O)c(Nc2ccc(N3CCN(C)CC3)cc2)n1 [Example D-17] : ≥ 8.00

====

molecular target: ITK (Homo sapiens); test: Inhibition of a panel of kinases, in vitro HotSpot kinase assay: ITK; assay type: biochemical; details: D-compounds panel data; 1 μM ATP
Sequence (Q08881 whole entry): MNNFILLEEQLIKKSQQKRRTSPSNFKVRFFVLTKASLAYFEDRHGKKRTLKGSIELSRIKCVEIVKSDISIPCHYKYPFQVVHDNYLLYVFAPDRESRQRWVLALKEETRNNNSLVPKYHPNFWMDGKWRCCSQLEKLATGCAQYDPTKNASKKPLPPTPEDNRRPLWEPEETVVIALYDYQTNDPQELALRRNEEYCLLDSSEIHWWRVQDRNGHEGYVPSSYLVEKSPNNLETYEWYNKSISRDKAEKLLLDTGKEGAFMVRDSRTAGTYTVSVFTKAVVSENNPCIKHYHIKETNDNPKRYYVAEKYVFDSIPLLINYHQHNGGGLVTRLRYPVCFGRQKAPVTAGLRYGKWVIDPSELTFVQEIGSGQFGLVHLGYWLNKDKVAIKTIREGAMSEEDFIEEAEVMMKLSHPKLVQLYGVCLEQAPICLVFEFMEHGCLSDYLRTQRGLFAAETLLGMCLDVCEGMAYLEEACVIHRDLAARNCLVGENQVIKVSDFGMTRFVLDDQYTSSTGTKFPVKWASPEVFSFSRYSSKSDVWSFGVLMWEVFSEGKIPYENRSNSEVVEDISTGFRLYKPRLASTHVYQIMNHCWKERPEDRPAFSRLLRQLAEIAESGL
pIC50: −log10 of the molar value.
quantity.name: pIC50

Cc1cc(Nc2nc(N3CCC[C@@H](c4ncc(-c5ccccc5)[nH]4)C3)cnc2C(N)=O)sn1 : < 5.00
CN1CCN(Cc2ccc(Nc3nc(N4CCC[C@@H](n5ccc6cc(C7CC7)ccc6c5=O)C4)cnc3C(N)=O)cc2)CC1 : 6.00 to 7.00
C[C@@H]1[C@H](NC(=O)c2ccc(C3CC3)cc2F)CCCN1c1cnc(C(N)=O)c(Nc2ccc(CN3CCN(C)CC3)cn2)n1 : 5.00 to 6.00
C[C@@H]1[C@H](NC(=O)c2ccc(C3CC3)cc2F)CCCN1c1cnc(C(N)=O)c(Nc2cnn(C)c2)c1 : 5.00 to 6.00
C[C@@H]1[C@H](NC(=O)c2ccc(C(C)(O)CO)cc2)CCCN1c1cnc(C(N)=O)c(Nc2cnn(C)c2)n1 (single isomer, unassigned) [Example D-256] : 6.00 to 7.00
C[C@@H]1[C@H](NC(=O)c2ccc(C3CC3)cc2F)CCCN1c1cnc(C(N)=O)c(Nc2ccc(N3CCN(C)CC3)nc2)n1 : 5.00 to 6.00
C[C@@H]1CC[C@H](NC(=O)c2ccc(C3CC3)cc2)CN1c1cnc(C(N)=O)c(Nc2cnn(C)c2)n1 : < 5.00

====

biological target: SRC (Homo sapiens); test: Inhibition of a panel of kinases, in vitro HotSpot kinase assay: SRC; assay type: biochemical; conditions: D-compounds panel data; 1 μM ATP
Sequence (P12931 whole entry): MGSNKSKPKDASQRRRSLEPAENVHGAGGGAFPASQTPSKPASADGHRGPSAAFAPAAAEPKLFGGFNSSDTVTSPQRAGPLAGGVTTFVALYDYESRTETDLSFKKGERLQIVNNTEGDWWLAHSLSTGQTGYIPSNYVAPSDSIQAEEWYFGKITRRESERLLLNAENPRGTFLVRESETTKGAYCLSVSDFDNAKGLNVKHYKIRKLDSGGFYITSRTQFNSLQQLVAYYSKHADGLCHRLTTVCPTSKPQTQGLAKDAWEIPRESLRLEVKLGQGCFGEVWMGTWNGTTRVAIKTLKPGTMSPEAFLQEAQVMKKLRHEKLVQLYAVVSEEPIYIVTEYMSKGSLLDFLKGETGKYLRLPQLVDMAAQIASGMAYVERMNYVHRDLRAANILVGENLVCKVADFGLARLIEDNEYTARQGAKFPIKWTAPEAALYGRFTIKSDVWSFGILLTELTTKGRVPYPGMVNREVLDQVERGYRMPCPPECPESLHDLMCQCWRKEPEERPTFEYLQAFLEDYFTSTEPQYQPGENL
The reader will find reported IC50 values listed item by item below.
quantity.name: IC50

Cc1cc(Nc2nc(N3CCC[C@@H](NC(=O)c4ccc(C(C)(C)O)cc4)[C@H]3C)cnc2C(N)=O)sn1 : 10 to 100 nM
C[C@@H]1CC[C@H](NC(=O)c2ccc(C3CC3)cc2)CN1c1cnc(C(N)=O)c(Nc2ccc(N3CCN(C)CC3)c(F)c2)n1 : 100 to 1000 nM
C[C@@H]1[C@H](NC(=O)c2ccc(C3CC3)cc2Cl)CCCN1c1cnc(C(N)=O)c(Nc2ccc(N3CCN(C)CC3)cc2)n1 : 100 to 1000 nM
CN1CCC(n2cc(Nc3nc(N4CCC[C@@H](n5ccc6cc(C7CC7)ccc6c5=O)C4)cnc3C(N)=O)cn2)CC1 : 100 to 1000 nM
C[C@@H]1[C@H](NC(=O)c2ccc(C3CC3)cc2)CCCN1c1cnc(C(N)=O)c(Nc2cnn(CC3CCOCC3)c2)n1 : 10 to 100 nM
C[C@@H]1[C@H](NC(=O)c2ccc(C3CC3)cc2F)CCCN1c1cnc(C(N)=O)c(Nc2ccc3cccnc3c2)n1 : > 10000 nM
C[C@@H]1[C@H](NC(=O)c2ccc(C3CC3)cc2)CCCN1c1cnc(C(N)=O)c(Nc2cnn(C3CC3)c2)n1 : 100 to 1000 nM
C[C@@H]1[C@H](NC(=O)c2ccc(C3CC3)cc2)CCCN1c1cnc(C(N)=O)c(Nc2ccc(OC3C[C@H]4CC[C@@H](C3)N4C)cc2)n1 (stereo partly drawn) [Example D-106] : 10 to 100 nM
C[C@@H]1[C@H](NC(=O)c2ccc(C3CC3)cc2F)CCCN1c1cnc(C(N)=O)c(Nc2cnn(C)c2)n1 : 100 to 1000 nM
C[C@@H]1[C@H](NC(=O)c2ccc(C3CC3)cc2)CCCN1c1cnc(C(N)=O)c(Nc2cnn(C3CCN(C(=O)C4(C)COC4)CC3)c2)n1 : ≤ 10 nM
C[C@@H]1[C@H](n2ccc3cc(C4CC4)ccc3c2=O)CCCN1c1cnc(C(N)=O)c(Nc2ccc(N3CCN(C)CC3)cc2)n1 : 10 to 100 nM
CN1CCN([C@@H]2CCCN(c3cnc(C(N)=O)c(Nc4cnn(C)c4)n3)C2)C1=O : 100 to 1000 nM
Cc1cc(Nc2nc(N3CCC[C@@H](c4ncc(-c5ccccc5)[nH]4)C3)cnc2C(N)=O)sn1 : 100 to 1000 nM
C[C@@H]1[C@H](NC(=O)c2ccc(C3CC3)cc2)CCCN1c1cnc(C(N)=O)c(Nc2cnn(CCN(C)C)c2)n1 : 100 to 1000 nM
C[C@@H]1[C@H](NC(=O)c2ccc(C(C)(C)C#N)cc2)CCCN1c1cnc(C(N)=O)c(Nc2cnn(C)c2)n1 : 10 to 100 nM
Cc1cc(Nc2nc(N3CCC[C@@H](NC(=O)c4ccc(C5CC5)cc4F)C3)cnc2C(N)=O)on1 : 1000 to 10000 nM
C[C@@H]1[C@H](NC(=O)c2ccc(C(C)(C)F)cc2)CCCN1c1cnc(C(N)=O)c(Nc2cnn(C)c2)n1 : 10 to 100 nM

====

# Lookup of reported IC50 keyed by entry
molecular target: UniProt:Q08881; assay: Inhibition of a panel of kinases, in vitro HotSpot kinase assay: ITK; type: biochemical; conditions: D-compounds panel data; 1 μM ATP
quantity.name: IC50

CC(=O)N1CCN(c2ccc(Nc3nc(N4CCC[C@@H](NC(=O)c5ccc(C6CC6)cc5)[C@H]4C)cnc3C(N)=O)cc2)CC1 : 100 to 1000 nM
C[C@@H]1[C@H](NC(=O)N(C)C)CCCN1c1cnc(C(N)=O)c(Nc2ccc(N3CCN(C)CC3)cc2F)n1 : 100 to 1000 nM
Cn1cc(Nc2nc(N3C4CCC(NC(=O)c5ccc(C6CC6)cc5)C3CC4)cnc2C(N)=O)cn1 (single isomer, unassigned) [Example D-200] : > 10000 nM
